# System: U87MG (Glioblastoma)
# assay.remarks: MTT cytotoxicity assay, 48 hours (Example 14)
# Assay type: cell-based
# condition.notes: 100 nM
Non-standard residues stand in square brackets, D forms with d. Residues, ends and D or L forms follow the SMILES beside them. *: point of attachment. Ac5c = NC1(C(=O)O)CCCC1; Deg = CCC(N)(CC)C(=O)O; Aib = CC(C)(N)C(=O)O; Butyryl = CCCC(=O)*
Provide the recorded Percentage cytotoxicity for the entries that follow.
Write down the value, and be sure its unit follows.

{"compound": "CC(C)C[C@H](NC(=O)[C@H](Cc1c[nH]cn1)NC(=O)C1(NC(=O)[C@@H](NC(=O)[C@H](C)NC(=O)[C@H](Cc2c[nH]c3ccccc23)NC(=O)[C@H](CCC(N)=O)NC(=O)[C@H](N)Cc2ccccc2)C(C)C)CCCC1)C(N)=O [SEQ ID: 10, D-Phe-Gln-Trp-Ala-Val-Ac5c-His-Leu-NH2] (H-[dF]QWAV[Ac5c]HL-NH2; N-terminus assumed)", "Percentage cytotoxicity": "15.0 ± 0.5%"}
{"compound": "CCCC(=O)N[C@H](Cc1ccccc1)C(=O)N[C@@H](CCC(N)=O)C(=O)N[C@@H](Cc1c[nH]c2ccccc12)C(=O)N[C@@H](C)C(=O)N[C@H](C(=O)NC(C)(C)C(=O)N[C@@H](Cc1c[nH]cn1)C(=O)N[C@@H](CC(C)C)C(N)=O)C(C)C [SEQ ID: 11] (Butyryl-[dF]QWAV[Aib]HL-NH2)", "Percentage cytotoxicity": "15.5 ± 0.6%"}

Now take the following compound into account.
Query string: Read off the recorded Percentage cytotoxicity for CCC(CC)(NC(=O)[C@H](Cc1c[nH]c2ccccc12)NC(=O)[C@H](CCC(N)=O)NC(=O)[C@H](N)Cc1ccccc1)C(=O)N[C@H](C(=O)NCC(=O)N[C@@H](Cc1c[nH]cn1)C(=O)N[C@@H](CC(C)C)C(N)=O)C(C)C [SEQ ID: 9, D-Phe-Gln-Trp-Deg-Val-Gly-His-Leu-NH2] (H-[dF]QW[Deg]VGHL-NH2; N-terminus assumed)
Result string: 21.4 ± 0.1%
